- Species: Mus musculus
- Procedure Text: Stimulation of cytokine secretion in C57BL/6 mouse HMNCs assessed as increase in IFN gamma secretion at 25 nM measured after 72 hrs by ELISA
- Type: functional
Calls of active or inactive are those of the source. The rule behind the calls is not given here.
Property Name: Activity

compound_string=CCCCCCCCCCCCCC[C@@H](O)[C@@H](O)[C@H](CO[C@H]1O[C@H](CO)[C@H](O)[C@H](O)[C@H]1O)NC(=O)CCCCCCCCCCCCOCCCCCCCCCOCC value_measured=Active
compound_string=CCCCCCCCCCCCCC[C@@H](O)[C@@H](O)[C@H](CO[C@H]1O[C@H](CO)[C@H](O)[C@H](O)[C@H]1O)NC(=O)CCCCCCCCCCCCOCCCCCCCCOCCC value_measured=Active
compound_string=CCCCCCCCCCCCCC[C@@H](O)[C@@H](O)[C@H](CO[C@H]1O[C@H](CO)[C@H](O)[C@H](O)[C@H]1O)NC(=O)CCCCCCCCCCCCCCCCOCCCCOCCC value_measured=Active
